Target: T1, Human IL-11 (human, UniProt P20809 22-199)
T1 construct: Recombinant human IL-11 (GenScript Cat. No. Z03108-1) or IL-11 secreted by human cells; the mature form is said to have 178 residues; also called recombinant human IL-11; endogenously produced IL-11
T1 sequence: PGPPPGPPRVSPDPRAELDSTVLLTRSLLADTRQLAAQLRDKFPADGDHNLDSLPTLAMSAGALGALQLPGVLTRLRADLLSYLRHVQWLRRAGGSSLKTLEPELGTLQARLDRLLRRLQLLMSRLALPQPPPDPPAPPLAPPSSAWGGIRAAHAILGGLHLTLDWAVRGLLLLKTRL
Assay: ELISA on coated recombinant human IL-11 (100 ng/well), scFv-Fc
ASSAY READOUT: EC50 (µg/mL)
The response must be a number in µg/mL with no trailing unit.

Take a look at these entries with their results.
>>> value("YU100-F02 (antibody) EVQLVESGGGVVQPGRSLRLSCAASGFTFSSYGMHWVRQAPGKGLEWVAVISYDGSNKYYADSVKGRFTISRDNSKNTLYLQMNSLRAEDTAVYYCAKIGATDPLDYWGQGTLVTVSSGSASAPKLEEGEFSEARVQSALTQPRSVSGSPGQSVTISCTGTSSDVGGYNYVSWYQQHPGKAPKLMIYDVTKRPSGVPDRFSGSKSGNTASLTISGLQADDEADYYCCSYAGSYTWIFGGGTKLTVL")
0.018
>>> value("YU100-G01 (antibody) QVQLVQSGGGVVQPGRSLRLSCAASGFTFSSYGMHWVRQAPGKGLEWVAVISYDGSNKYYADSVKGRFTISRDNSKNTLYLQMNSLRAEDTAVYYCAKIGATDPLDYWGQGTLVTVSSGSASAPKLEEGEFSEARVQSALTQPRSVSASPGQSVTISCTGTSSDVGAYNYVSWYQQHPGKAPKLMLYDVNKRPSGVPDRFSGSKSGNTASLTISRLQAEDEADYYCCSYAGSYTWVFGGGTKLTVL")
0.019

Prompt: What value of EC50 has been recorded for this entry: YU112-E07 (antibody) QVQLVQSGGGVVQPGRSLRLSCAASGFTFGSYGMHWVRQAPGKGLEWVAVISYDGSNKYYADSVKGRFTISRDNSKNTLYLQMNSLRAEDTAVYYCAKGSYYFDYWGQGTLVTVSSGSASAPKLEEGEFSEARVEIVMTQSPDSLAVSLGERATINCKSSQSVNSAYLAWYQHKPGQPPRLLIYGASRRVTGVPDRFSGSGSGTDFTLTISSLQPEDFATYYCQQSYSDPRWTFGQGTKVEIK
Completion: 0.058
